These data points were gathered from patent US4294833A.

This section presents compounds with their documented inhibition in vivo at 20 mg/kg values.
System: thrombin-induced coagulation of platelet rich plasma
ASSAY_TEXT: Antithrombin activity on PRP, Hartert's thromboelastograph
Format: in vivo, New Zealand rabbits
RECORDED_CONDITIONS: Oryctolagus cuniculus, Platelet, ip, percent decrease of index ma/[r+k] vs before treatment; 20 mg/kg intraperitoneal, rabbits

[
  {
    "COMPOUND": "CCC(C)Oc1ccc(C(=O)NCc2cccnc2)cc1C(=O)NCc1cccnc1 (stereo not drawn)",
    "inhibition in vivo at 20 mg/kg, %": 38.1
  },
  {
    "COMPOUND": "C=CC(C)Oc1ccc(C(=O)NCc2cccnc2)cc1C(=O)NCc1cccnc1 (stereo not drawn)",
    "inhibition in vivo at 20 mg/kg, %": 46.3
  },
  {
    "COMPOUND": "COc1cc(C(=O)NCc2cccnc2)cc(C(=O)NCc2cccnc2)c1OC1CC1",
    "inhibition in vivo at 20 mg/kg, %": 33.4
  },
  {
    "COMPOUND": "C=CCOc1c(OC)cc(C(=O)NCc2cccnc2)cc1C(=O)NCc1cccnc1",
    "inhibition in vivo at 20 mg/kg, %": 36
  },
  {
    "COMPOUND": "COc1c(Cl)cc(C(=O)N(Cc2ccncc2)C(C)C)cc1C(=O)N(Cc1ccncc1)C(C)C",
    "inhibition in vivo at 20 mg/kg, %": 53.9
  },
  {
    "COMPOUND": "CCCCCCOc1ccc(C(=O)NCc2ccncc2)cc1C(=O)NCc1ccncc1",
    "inhibition in vivo at 20 mg/kg, %": 48.6
  },
  {
    "COMPOUND": "CC(C)(C)Oc1ccc(C(=O)NCc2cccnc2)cc1C(=O)NCc1cccnc1",
    "inhibition in vivo at 20 mg/kg, %": 27.6
  },
  {
    "COMPOUND": "COc1ccc(C(=O)NCc2ccncc2)cc1C(=O)NCc1ccncc1",
    "inhibition in vivo at 20 mg/kg, %": 37
  },
  {
    "COMPOUND": "CC=CCOc1ccc(C(=O)N(C)Cc2cccnc2)cc1C(=O)N(C)Cc1cccnc1",
    "inhibition in vivo at 20 mg/kg, %": 47.9
  },
  {
    "COMPOUND": "CC(C)CCOc1ccc(C(=O)NCc2cccnc2)cc1C(=O)NCc1cccnc1",
    "inhibition in vivo at 20 mg/kg, %": 28.5
  },
  {
    "COMPOUND": "CC(C)CCOc1c(Cl)cc(C(=O)NCc2cccnc2)cc1C(=O)NCc1cccnc1",
    "inhibition in vivo at 20 mg/kg, %": 35.1
  },
  {
    "COMPOUND": "CC(C)(C)COc1c(C(=O)NCc2cccnc2)cc(C(=O)NCc2cccnc2)cc1[N+](=O)[O-]",
    "inhibition in vivo at 20 mg/kg, %": 25.4
  },
  {
    "COMPOUND": "CCOc1ccc(C(=O)N(CCCC(C)C)Cc2cccnc2)cc1C(=O)N(CCCC(C)C)Cc1cccnc1",
    "inhibition in vivo at 20 mg/kg, %": 32.7
  },
  {
    "COMPOUND": "CC(C)(C)COc1ccc(C(=O)NCc2cccnc2)cc1C(=O)NCc1cccnc1",
    "inhibition in vivo at 20 mg/kg, %": 29.7
  },
  {
    "COMPOUND": "CCCCCOc1ccc(C(=O)NCc2cccnc2)cc1C(=O)NCc1cccnc1",
    "inhibition in vivo at 20 mg/kg, %": 43
  },
  {
    "COMPOUND": "COc1cc(C(=O)NCc2cccnc2)cc(C(=O)NCc2cccnc2)c1OCC(C)(C)C",
    "inhibition in vivo at 20 mg/kg, %": 25.5
  },
  {
    "COMPOUND": "CCC(C)(C)Oc1c(Cl)cc(C(=O)NCc2cccnc2)cc1C(=O)NCc1cccnc1",
    "inhibition in vivo at 20 mg/kg, %": 27.3
  },
  {
    "COMPOUND": "CC=COc1c(Cl)cc(C(=O)N(CCC(C)C)Cc2cccnc2)cc1C(=O)N(CCC(C)C)Cc1cccnc1",
    "inhibition in vivo at 20 mg/kg, %": 27.9
  }
]
